Every entry's value here was drawn from ChEMBL document CHEMBL1134606.

target-under-test: Adrenergic receptor alpha-1 (Rattus norvegicus, UniProt P15823+P23944+P43140)
experiment: In vitro binding affinity towards alpha-1 adrenergic receptor using radioligand [3H]prazosin
Type: protein assay
Listed here are compounds together with their documented Ki.
Express your answer in nM, writing the number without its unit.

Example entries and their recorded answers appear below.
CCCCOc1ccccc1N1CCN(CCCCN2C(=O)C3CCCCN3C2=O)CC1.Cl (stereo not drawn)
0.4
CCCCOc1ccccc1N1CCN(CCCN2C(=O)C3CCCN3C2=O)CC1.Cl (stereo not drawn)
30
Cc1ccccc1N1CCN(CCCCN2CC(=O)N3CCCCC3C2=O)CC1.Cl (stereo not drawn)
29

Let me know recorded Ki for Cl.O=C1C2CCCCN2C(=O)N1CCCCN1CCN(c2cccc(Br)c2)CC1 (stereo not drawn) , thanks.
5.3

Give the reported Ki for this compound. Cl.N#Cc1ccccc1N1CCN(CCCCN2CC(=O)N3CCCCC3C2=O)CC1 (stereo not drawn)
27

====

target-under-test: 5-hydroxytryptamine receptor 4 (Rattus norvegicus)
experiment: In vitro binding affinity towards 5-HT4 receptor was determined
pKi: −log10 of the molar value.
readout-type: pKi

Respond only with pKi recorded for CCS(=O)(=O)Nc1cccc(N2CCN(CCCCN3C(=O)C4CCCN4C3=O)CC2)c1.Cl (stereo unspecified)
< 6.00

====

# maps each entry to its Ki
target-under-test: 5-hydroxytryptamine receptor 1A (Rattus norvegicus, UniProt P19327)
Sequence (P19327 whole entry): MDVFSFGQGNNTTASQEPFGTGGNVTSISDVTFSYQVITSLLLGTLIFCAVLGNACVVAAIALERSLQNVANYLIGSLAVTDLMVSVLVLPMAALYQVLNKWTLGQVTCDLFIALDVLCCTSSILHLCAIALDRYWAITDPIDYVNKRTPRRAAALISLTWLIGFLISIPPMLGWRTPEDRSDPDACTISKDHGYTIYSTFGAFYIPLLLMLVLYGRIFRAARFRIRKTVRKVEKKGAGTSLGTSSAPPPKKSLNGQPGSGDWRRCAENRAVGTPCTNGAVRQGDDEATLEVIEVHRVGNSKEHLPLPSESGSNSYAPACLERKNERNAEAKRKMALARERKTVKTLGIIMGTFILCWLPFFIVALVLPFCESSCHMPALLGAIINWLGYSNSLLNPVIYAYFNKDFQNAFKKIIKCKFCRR

Worked cases, answers included:
CCCCOc1ccccc1N1CCN(CCCN2CC(=O)N3CCCCC3C2=O)CC1.Cl (configuration not stated)
110 nM
CCCNC(=O)c1ccccc1N1CCN(CCCCN2C(=O)C3CCCCN3C2=O)CC1.Cl (configuration not stated)
341 nM

// switching to the query molecule
Report its Ki with 5-hydroxytryptamine receptor 1A (Rattus norvegicus, UniProt P19327) as the test system: CC(C)C(=O)Nc1cccc(N2CCN(CCCN3CC(=O)N4CCCC4C3=O)CC2)c1.Cl (configuration not stated)
326 nM

====

target-under-test: 5-hydroxytryptamine receptor 2A (Rattus norvegicus) (UniProt P14842)
Sequence (P14842 whole entry, looked up): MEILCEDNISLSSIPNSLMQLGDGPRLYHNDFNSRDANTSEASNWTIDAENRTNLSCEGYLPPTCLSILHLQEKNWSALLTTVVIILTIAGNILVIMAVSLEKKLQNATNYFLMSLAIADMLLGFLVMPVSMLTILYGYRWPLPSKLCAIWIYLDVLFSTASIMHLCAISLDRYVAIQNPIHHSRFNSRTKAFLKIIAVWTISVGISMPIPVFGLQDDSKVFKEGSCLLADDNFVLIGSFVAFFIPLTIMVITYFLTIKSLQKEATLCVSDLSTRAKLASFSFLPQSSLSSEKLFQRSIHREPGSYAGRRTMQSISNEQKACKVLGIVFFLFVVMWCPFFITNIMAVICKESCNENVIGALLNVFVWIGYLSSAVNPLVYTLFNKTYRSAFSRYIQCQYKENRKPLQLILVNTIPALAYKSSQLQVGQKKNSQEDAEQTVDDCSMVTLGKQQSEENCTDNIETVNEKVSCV
readout-type: Ki

Jot down Ki (5-hydroxytryptamine receptor 2A (Rattus norvegicus) (UniProt P14842)) of CCS(=O)(=O)Nc1cccc(N2CCN(CCCCN3C(=O)C4CCCN4C3=O)CC2)c1.Cl (stereo unspecified) .
> 1000 nM

====

target-under-test: 5-hydroxytryptamine receptor 3A (Rattus norvegicus)
pKi: −log10 of the molar value.
readout-type: pKi

Give the measured pKi for CCS(=O)(=O)Nc1cccc(N2CCN(CCCCN3C(=O)C4CCCN4C3=O)CC2)c1.Cl (stereo unspecified)
< 6.00

====

target-under-test: Adrenergic receptor alpha-1 (Rattus norvegicus, UniProt P15823+P23944+P43140)
experiment: In vitro binding affinity towards alpha-1 adrenergic receptor using radioligand [3H]prazosin
Format: protein assay
readout-type: Ki (nM)
Express your answer in nM, writing the number without its unit.

The following molecules have reported results that may help.
Cc1ccccc1N1CCN(CCCN2C(=O)C3CCCCN3C2=O)CC1.Cl (stereo not given)
5.3
CCCOC(=O)c1ccccc1N1CCN(CCCN2C(=O)C3CCCCN3C2=O)CC1.Cl (stereo not given)
41
CCCOC(=O)c1ccccc1N1CCN(CCCN2CC(=O)N3CCCC3C2=O)CC1.Cl (stereo not given)
26
Cl.O=C1C2CCCN2C(=O)N1CCCN1CCN(c2cccc(Br)c2)CC1 (stereo not given)
29
Cl.O=C1C2CCCN2C(=O)CN1CCCCN1CCN(c2cccc(C(F)(F)F)c2)CC1 (stereo not given)
95

Look up Ki of CCCOC(=O)c1ccccc1N1CCN(CCCCN2C(=O)C3CCCN3C2=O)CC1.Cl (stereo not given) and report it.
51

Consider the molecule Cl.O=C1C2CCCCN2C(=O)CN1CCCN1CCN(c2cccc(C(F)(F)F)c2)CC1 (stereo not given) and give its recorded Ki.
252

# return recorded Ki for input COc1ccccc1N1CCN(CCCN2CC(=O)N3CCCCC3C2=O)CC1.Cl (stereo not given)
16

// Input: COc1ccccc1N1CCN(CCCCN2CC(=O)N3CCCC3C2=O)CC1.Cl (stereo not given) . Output its Ki only.
28

Return reported Ki. Input molecule: Cl.N#Cc1ccccc1N1CCN(CCCN2CC(=O)N3CCCC3C2=O)CC1 (stereo not given)
28

Answer with the recorded Ki for the molecule listed here: CCCOC(=O)c1ccccc1N1CCN(CCCCN2CC(=O)N3CCCCC3C2=O)CC1.Cl (stereo not given)
561

Entry Cl.Nc1cccc(N2CCN(CCCCN3C(=O)C4CCCCN4C3=O)CC2)c1 (stereo not given) needs its Ki filled in; supply it.
215

Give reported Ki value for Cl.N#Cc1ccccc1N1CCN(CCCCN2C(=O)C3CCCN3C2=O)CC1 (stereo not given)
8

Identify measured Ki corresponding to Cl.N#Cc1ccccc1N1CCN(CCCN2C(=O)C3CCCCN3C2=O)CC1 (stereo not given)
13

// fetch Ki given entry Cc1ccccc1N1CCN(CCCCN2C(=O)C3CCCN3C2=O)CC1.Cl (stereo not given)
10
